Consider the following compounds; for each one, report its Ki.
- Measured on: VR1 (Rattus norvegicus, UniProt O35433)
- Construct: expressed in transfected cells; host or cells: Chinese Hamster Ovary cells (CHO, ATCC CCL-61), Tet-off inducible expression
- Sequence (O35433 whole entry): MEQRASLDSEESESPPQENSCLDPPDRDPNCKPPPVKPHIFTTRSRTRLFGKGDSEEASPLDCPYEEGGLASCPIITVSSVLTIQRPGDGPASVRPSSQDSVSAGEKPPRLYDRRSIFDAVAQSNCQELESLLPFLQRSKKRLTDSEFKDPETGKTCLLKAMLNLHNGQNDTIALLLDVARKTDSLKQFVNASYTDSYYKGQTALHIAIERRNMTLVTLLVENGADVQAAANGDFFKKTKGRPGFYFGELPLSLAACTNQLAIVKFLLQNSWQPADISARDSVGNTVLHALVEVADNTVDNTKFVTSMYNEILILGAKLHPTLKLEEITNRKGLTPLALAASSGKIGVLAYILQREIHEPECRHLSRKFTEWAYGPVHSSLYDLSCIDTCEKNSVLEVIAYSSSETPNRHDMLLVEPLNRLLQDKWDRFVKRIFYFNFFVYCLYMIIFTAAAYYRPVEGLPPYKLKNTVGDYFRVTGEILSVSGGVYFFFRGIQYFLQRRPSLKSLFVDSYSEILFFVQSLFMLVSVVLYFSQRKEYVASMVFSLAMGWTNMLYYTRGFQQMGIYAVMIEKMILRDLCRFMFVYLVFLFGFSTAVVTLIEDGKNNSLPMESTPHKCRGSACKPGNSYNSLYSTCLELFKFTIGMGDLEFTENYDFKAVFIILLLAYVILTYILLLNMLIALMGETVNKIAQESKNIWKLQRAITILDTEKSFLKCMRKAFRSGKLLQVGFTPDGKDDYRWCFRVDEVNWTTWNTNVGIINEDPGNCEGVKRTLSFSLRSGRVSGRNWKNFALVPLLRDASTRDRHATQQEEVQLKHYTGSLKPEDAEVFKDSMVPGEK
- Test name: biochemical
- Assay type: binding
State just the number; it will be interpreted in nM.

Which Ki reading was recorded for the compound COc1cc(CNC(=S)OCC(COC(=O)C(C)(C)C)Cc2ccc(C)c(C)c2)ccc1O (stereo not drawn) ? 143

Which Ki reading was recorded for the compound COc1cc(CNC(=S)NCC(CCc2ccc(C)c(C)c2)COC(=O)C(C)(C)C)ccc1O (stereo not drawn) ? 24.9

Which Ki reading was recorded for the compound COc1cc(CC(=O)NCC(COC(=O)C(C)(C)C)Cc2ccc(C)c(C)c2)ccc1O (stereo not drawn) [LJO-198, reference compound] ? 157

Which Ki reading was recorded for the compound COc1cc(CC(=O)NCC(CCc2ccc(C(C)(C)C)cc2)COC(=O)C(C)(C)C)ccc1O (stereo not drawn) ? 36.3

Which Ki reading was recorded for the compound COc1cc(CNC(=S)NC(CCc2ccc(C)c(C)c2)COC(=O)C(C)(C)C)ccc1O (stereo not drawn) ? 244

Which Ki reading was recorded for the compound COc1cc(CNC(=S)NC(COC(=O)C(C)(C)C)Cc2ccc(C(C)(C)C)cc2)ccc1O (stereo not drawn) ? 34.6

Which Ki reading was recorded for the compound COc1cc(CC(=O)NCC(COC(=O)C(C)(C)C)Cc2ccc(C)c(C)c2)ccc1OCCN (stereo not drawn) [MSK-195, reference compound] ? 603

Which Ki reading was recorded for the compound COc1cc(COC(=S)NCC(COC(=O)C(C)(C)C)Cc2ccc(C)c(C)c2)ccc1O (stereo not drawn) ? 156

Which Ki reading was recorded for the compound COc1cc(CNC(=S)OCc2ccc(C(C)(C)C)cc2)ccc1O ? 1960

Which Ki reading was recorded for the compound COc1cc(CC(=O)NCC(CCc2ccc(C)c(C)c2)COC(=O)C(C)(C)C)ccc1OCCN (stereo not drawn) ? 855

Which Ki reading was recorded for the compound COc1cc(COC(=S)NCc2ccc(C(C)(C)C)cc2)ccc1O ? 1940

Which Ki reading was recorded for the compound COc1cc(CC(=O)NCC(CCc2ccc(C)c(C)c2)COC(=O)C(C)(C)C)ccc1O (stereo not drawn) ? 153

Which Ki reading was recorded for the compound COc1cc(CNC(=S)NC(COC(=O)C(C)(C)C)Cc2ccc(C)c(C)c2)ccc1O (stereo not drawn) ? 45.3

Which Ki reading was recorded for the compound COc1cc(CNC(=S)NCC(CCc2ccc(C(C)(C)C)cc2)COC(=O)C(C)(C)C)ccc1O (stereo not drawn) ? 18.3

Which Ki reading was recorded for the compound COc1cc(CNC(=S)NC(COC(=O)C(C)(C)C)Cc2ccc(C(C)(C)C)cc2)ccc1OCCN (stereo not drawn) ? 341

* * *

Consider the following compounds; for each one, report its EC50.
- Measured on: VR1 (Rattus norvegicus)
- Test name: cell-based
State just the number; it will be interpreted in nM.

Which EC50 reading was recorded for the compound COc1cc(CC(=O)NCC(CCc2ccc(C)c(C)c2)COC(=O)C(C)(C)C)ccc1O (centres unmarked) [Compound 34] ? 0.784

Which EC50 reading was recorded for the compound COc1cc(COC(=S)NCC(COC(=O)C(C)(C)C)Cc2ccc(C)c(C)c2)ccc1O (centres unmarked) [Compound 140] ? 2.4

Data origin: patent US6872748B2
